These entries and their values trace back to patent US20210024639A1.

Quick reference for % binding (EMAX) compared to WT MET among some binders
Target: human MET ECD mutant D (mutations 1, 2) (human) (UniProt P08581)
Experiment: ELISA, MET ECD mutant in solid phase, mAb 0-50 nM
MEASURED PARAMETER: % binding (EMAX) compared to WT MET (%)

| BINDER | MEASURED PARAMETER | DATA VALUE |
| --- | --- | --- |
| chimeric llama-human IgG1 mAb 71G2 (antibody, V domains shown) VH: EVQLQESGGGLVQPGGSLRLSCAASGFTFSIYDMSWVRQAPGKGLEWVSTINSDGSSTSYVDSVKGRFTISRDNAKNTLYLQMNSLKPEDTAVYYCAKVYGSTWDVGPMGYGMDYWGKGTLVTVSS VL: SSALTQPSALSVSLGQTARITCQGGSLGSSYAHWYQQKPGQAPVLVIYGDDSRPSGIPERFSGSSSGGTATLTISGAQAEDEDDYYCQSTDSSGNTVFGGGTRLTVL | % binding (EMAX) compared to WT MET | 114 |
| chimeric llama-human IgG1 mAb 71A3 (antibody, V domains shown) VH: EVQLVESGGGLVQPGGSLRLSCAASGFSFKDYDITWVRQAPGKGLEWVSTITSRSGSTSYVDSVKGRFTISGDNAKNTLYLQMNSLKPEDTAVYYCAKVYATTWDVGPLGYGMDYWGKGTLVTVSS VL: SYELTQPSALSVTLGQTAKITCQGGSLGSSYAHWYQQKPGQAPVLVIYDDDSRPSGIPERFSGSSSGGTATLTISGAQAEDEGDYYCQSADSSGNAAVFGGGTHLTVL | % binding (EMAX) compared to WT MET | 128 |
| chimeric llama-human IgG1 mAb 71D6 (antibody, V domains shown) VH: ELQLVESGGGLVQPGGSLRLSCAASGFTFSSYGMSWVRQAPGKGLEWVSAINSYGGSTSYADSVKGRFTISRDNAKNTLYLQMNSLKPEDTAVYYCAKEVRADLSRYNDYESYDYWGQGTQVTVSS VL: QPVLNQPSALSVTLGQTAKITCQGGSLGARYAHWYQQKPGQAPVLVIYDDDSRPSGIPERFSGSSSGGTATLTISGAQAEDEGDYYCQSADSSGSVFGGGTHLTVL | % binding (EMAX) compared to WT MET | 128 |
| chimeric llama-human IgG1 mAb 71D4 (antibody, V domains shown) VH: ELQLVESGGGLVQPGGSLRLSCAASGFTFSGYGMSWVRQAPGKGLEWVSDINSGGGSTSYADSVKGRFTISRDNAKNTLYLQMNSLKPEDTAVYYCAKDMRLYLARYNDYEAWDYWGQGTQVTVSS VL: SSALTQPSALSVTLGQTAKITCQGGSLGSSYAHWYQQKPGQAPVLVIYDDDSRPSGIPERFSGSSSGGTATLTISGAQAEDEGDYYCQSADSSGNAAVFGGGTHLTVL | % binding (EMAX) compared to WT MET | 120 |
